target: human Gal-1 (hGal-1); experiment: Competitive binding assay: binding of biotinylated hGal-1 to microplate-adsorbed asialofetuin (ASF); details: Activities on hGal-1; mean values of several measurements
Sequence (P09382 2-135 limits assumed): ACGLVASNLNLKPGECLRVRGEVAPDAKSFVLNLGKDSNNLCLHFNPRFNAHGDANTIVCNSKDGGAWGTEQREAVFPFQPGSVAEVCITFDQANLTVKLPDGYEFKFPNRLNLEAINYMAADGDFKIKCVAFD
readout: log10 of IC50 (log10 of the value in µM)

compound | measured
CO[C@@H]1[C@@H](n2cc(-c3ccc(C)c(F)c3F)nn2)[C@@H](O)[C@@H](CO)O[C@@H]1Cc1cc(C2CCC(=O)N(C)CC2)no1 (stereo partly drawn) [Ex 1.345] | -0.14
CO[C@@H]1[C@@H](n2cc(-c3cc(F)c(F)c(F)c3)nn2)[C@@H](O)[C@@H](CO)O[C@@H]1Cc1cc(C(C)(C)C)on1 [Ex 1.63] | 0.40
CO[C@@H]1[C@@H](n2cc(-c3cc(F)c(F)c(F)c3)nn2)[C@@H](O)[C@@H](CO)O[C@@H]1C[C@H]1CN(C2CCN(S(C)(=O)=O)CC2)C(=O)O1 [Example 5.07] | 0.88
CC(C)(C)OC(=O)N1CCC(C2=NOC(C[C@H]3O[C@H](CO)[C@H](O)[C@H](n4cc(-c5ccc(Cl)c(F)c5F)nn4)[C@H]3O)C2)CC1 (stereo partly drawn) [Ex 1.102] | 0.37
CO[C@@H]1[C@@H](n2cc(-c3cc(F)c(F)c(F)c3)nn2)[C@@H](O)[C@@H](CO)O[C@@H]1Cc1cc(C2(O)CCCC2)no1 [Ex 1.312] | 0.63
CO[C@@H]1[C@@H](n2cc(-c3ccc(C)c(F)c3F)nn2)[C@@H](O)[C@@H](CO)O[C@@H]1Cc1cc(C(C)(C)C)no1 [Ex 1.254] | 0.05
CCC(O)(CC)c1cc(C[C@H]2O[C@H](CO)[C@H](O)[C@H](n3cc(-c4ccc(C)c(F)c4F)nn3)[C@H]2OC)no1 [Ex 1.323] | 0.71
CO[C@@H]1[C@@H](n2cc(-c3ccc(Cl)c(F)c3F)nn2)[C@@H](O)[C@@H](CO)O[C@@H]1Cc1cc(C2(O)CCC2)no1 [Example 2.59] | 0.36
CO[C@@H]1[C@@H](n2cc(-c3cc(F)c(F)c(F)c3)nn2)[C@@H](O)[C@@H](CO)O[C@@H]1Cc1cc(C2CCN(CC3CC3)CC2)on1 [Example 3.43] | 0.45
CO[C@@H]1[C@@H](n2cc(-c3ccc(F)c(F)c3F)nn2)[C@@H](O)[C@@H](CO)O[C@@H]1Cc1cc(C2CCOCC2)on1 [Ex 1.184] | 0.07
CCOC(=O)N1CCC(c2cc(C[C@H]3O[C@H](CO)[C@H](O)[C@H](n4cc(-c5cc(F)c(F)c(F)c5)nn4)[C@H]3OC)no2)CC1 [Example 3.31] | -0.07

----------
IC50 values, listed per item
molecular target: human Gal-1 (hGal-1); assay: Competitive binding assay: binding of biotinylated hGal-1 to microplate-adsorbed asialofetuin (ASF); details: Activities on hGal-1; mean values of several measurements
readout: IC50

compound | readout | measured
CO[C@@H]1[C@@H](n2cc(-c3ccc(Cl)c(F)c3F)nn2)[C@@H](O)[C@@H](CO)O[C@@H]1CC1CC(C(C)(C)CO)=NO1 (stereo partly drawn) [Ex 1.280] | IC50 | 1820 nM
CN=S(=O)(C(C)C)N1CCC(c2cn(C[C@H]3O[C@H](CO)[C@H](O)[C@H](n4cc(-c5cc(F)c(F)c(F)c5)nn4)[C@H]3OC)nn2)CC1 (stereo partly drawn) [Example 4.25] | IC50 | 1570 nM
CCc1cc(C[C@H]2O[C@H](CO)[C@H](O)[C@H](n3cc(-c4cc(F)c(F)c(F)c4)nn3)[C@H]2OC)on1 [Ex 1.307] | IC50 | 7220 nM
COc1ccc(C2=NOC(C[C@@H]3O[C@H](CO)[C@H](O)[C@H](n4cc(-c5cc(F)c(F)c(F)c5)nn4)[C@H]3O)C2)cc1 (stereo partly drawn) [Ex 1.88] | IC50 | 22200 nM
CO[C@@H]1[C@@H](n2cc(-c3ccc(C)c(F)c3F)nn2)[C@@H](O)[C@@H](CO)O[C@@H]1Cc1cc(C2(O)CCCC2)no1 [Ex 1.326] | IC50 | 2870 nM
CO[C@@H]1[C@@H](n2cc(-c3cc(F)c(F)c(F)c3)nn2)[C@@H](O)[C@@H](CO)O[C@@H]1Cc1cn(C2CCN(S(=O)(=O)C(C)C)CC2)nn1 [Example 4.10] | IC50 | 270 nM
